- TESTED_ON: T1, recombinant protein consisting of the extracellular domain of human TREM2 fused to the His tag (human, UniProt Q9NZC2 19-174)
- T1 construct: also called His tagged hTREM2; His-TREM2
- T1 sequence: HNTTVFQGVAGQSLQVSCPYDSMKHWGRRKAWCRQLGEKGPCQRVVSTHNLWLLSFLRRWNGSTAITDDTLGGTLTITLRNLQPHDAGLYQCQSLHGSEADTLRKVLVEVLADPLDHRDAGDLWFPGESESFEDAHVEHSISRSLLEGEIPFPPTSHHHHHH
- METHOD_SUMMARY: direct ELISA; highest dilution with S/B >= 2.1
Listed below: Titer values for each entry.
# value in dilution; strip the unit string

INSERT INTO measurements (binder, readout, recorded_number) VALUES
  ('80E3C7 (antibody, V domains shown, Biotin conjugated in sup ELISA, cell-based ELISA and flow cytometry; also called anti-TREM2 antibody (E3C7); TREM2 Ab E3C7) VH: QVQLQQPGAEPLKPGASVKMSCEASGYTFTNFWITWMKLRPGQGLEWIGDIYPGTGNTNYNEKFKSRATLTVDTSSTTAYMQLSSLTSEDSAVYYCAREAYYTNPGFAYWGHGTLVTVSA VL: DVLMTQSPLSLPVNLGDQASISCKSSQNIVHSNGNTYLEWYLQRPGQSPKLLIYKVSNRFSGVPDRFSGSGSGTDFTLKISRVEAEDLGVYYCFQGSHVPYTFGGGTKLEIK', 'Titer', '2.19e+06'),
  ('54H2C1 (antibody, V domains shown, Biotin conjugated in sup ELISA, cell-based ELISA and flow cytometry) VH: QVQLQQPGAEPLTPGASVKMSCEASGYTFTNFWITWVKLRPGQGLEWIGDIYPGSGNTNYNEKFKSRATLTVDTSSTTAYMQLSSLTSEDSAVYYCAREAYYTNPGFAYWGHGTLVTVSA VL: DVLMTQSPLSLPVNLGDQASISCKSSQNIVHSNGNTYLEWYLQRPGQSPKLLIYKVSNRFSGVPDRFSGSGSGTDFTLKISRVEAEDLGLYYCFQGSHVPYTFGGGTKLEIK', 'Titer', 729000);

**Query** Check the records and state Titer for 61B11C9 (antibody, V domains shown, Biotin conjugated in sup ELISA, cell-based ELISA and flow cytometry) VH: QLQESGPEQVKPGASVKMSCRTSGYTFTAYNMHWVKQRLGKSLEWIGYIRPTNGDTRYNRRFRDKATLTVDKSSSTTYMELRSLTSEDSAVYYCTRSTTVASFDYWGQGTTLTVSS VL: DIVMTQTTSSLTVSVGQKITLNCKSSQSLLYTNNQKNFLAWYQQKPGQSPKLLIYWASTRDSGVPDRFTGSGSGTDFTLTITSVMAEDLAVYFCQQYYDFPPTFGGGTKLEIK
**Result** 2.19e+06
